From: ChEMBL document CHEMBL1828587

Assay: Half life in rat at 1 mg/kg, iv
Assay type: ADME, organism-based
Design: dose 1 mg/kg, route intravenous
Settings: in vivo
measurement_name: half-life

Ask: Returns the measured half-life for the input compound. Input: `CCCN(CCC)c1c(C)c(Nc2ccc(OC)cc2Cl)nc2ccnn12`
Result: 1.7 h

---

Test: AUC (0 to infinity) in rat at 1 mg/kg, iv
Type: ADME, organism-based
Parameters: dose 1 mg/kg, route intravenous, time infinity
Details: plasma
measurement_name: AUC(0-inf) (ng·h/mL)
// note: answer is a bare numeric in ng·h/mL

Ask: Would you kindly share the measured AUC(0-inf) for `CCCN(CCC)c1c(C)c(Nc2ccc(OC)cc2Cl)nc2ccnn12` ?
Result: 96

---

Target: Corticotropin-releasing factor receptor 1 (Homo sapiens, UniProt P34998)
Sequence (P34998 whole entry): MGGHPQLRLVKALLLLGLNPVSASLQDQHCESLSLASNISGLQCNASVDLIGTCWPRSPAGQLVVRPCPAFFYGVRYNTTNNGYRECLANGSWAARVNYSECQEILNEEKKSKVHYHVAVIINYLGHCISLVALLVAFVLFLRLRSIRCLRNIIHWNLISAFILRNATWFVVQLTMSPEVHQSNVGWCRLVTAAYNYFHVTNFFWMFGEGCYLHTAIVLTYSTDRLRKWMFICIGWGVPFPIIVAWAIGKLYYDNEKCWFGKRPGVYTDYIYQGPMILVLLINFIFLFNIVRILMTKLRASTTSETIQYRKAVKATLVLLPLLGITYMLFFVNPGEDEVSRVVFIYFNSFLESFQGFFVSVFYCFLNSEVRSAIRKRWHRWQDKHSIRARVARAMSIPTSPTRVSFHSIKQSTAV
Assay: Displacement of [125I]-CRF from human CRF1 receptor expressed in CHO-K1 cells after 2 hrs by gamma counting
I'd be grateful if you could share measured pIC50 for these entries.
Scale explanation: pIC50 corresponds to minus log10 of a concentration expressed in moles per litre.

Ask: Quick one: pIC50 of `CCCN(CCC)c1c(OC)c(Nc2ccc(OC)cc2Cl)nc2ccnn12` ?
Result: 7.89

Ask: Input `CCC(CC)n1ccc2c(Cc3c(C)cc(C)cc3C)nc3ccnn3c21`
Result: 8.15

Ask: What about this compound? `CCC(CC)Nc1c(C)c(Nc2ccc(OC)cc2Cl)nc2ncnn12`
Result: 7.80

Ask: Another compound to look at: `C=CCN(c1cc(N(CCC)CCC)n2nccc2n1)c1ccc(OC)cc1Cl`
Result: 8.36

Ask: Try `CCCN(CCC)c1cc(N(COC)c2ccc(OC)cc2Cl)nc2ccnn12` next.
Result: 7.82

Ask: Also check `CCC(CC)n1ccc2c(Nc3c(C)cc(C)cc3C)nc3ccnn3c21`
Result: 8.21

---

Biological target: Corticotropin-releasing factor receptor 1 (Homo sapiens)
Assay: Displacement of [125I]-CRF from human CRF1 receptor expressed in CHO-K1 cells after 2 hrs by gamma counting
Format: cell-based
Exercise: for every item that follows, state its recorded pIC50.
Here pIC50 is given on a logarithmic scale as minus log10 of the concentration in mol/L.

Ask: Query: pIC50; subject: `CCc1cc(OC)ccc1Nc1nc2ccnn2c2c1ccn2C(CC)CC`
Result: 8.62

Ask: Would you kindly repeat that for `CCCN(CCC)c1nc(N(C)c2ccc(OC)cc2Cl)nc2ccnn12` ?
Result: 7.70

Ask: Same read-out for `CCCN(CCC)c1cc(N(CC)c2ccc(OC)cc2Cl)nc2nccn12` ?
Result: 7.38

Ask: Can you handle `CCC(CC)n1ccc2c(Nc3ccc(OC)cc3Cl)nc3ccnn3c21` next?
Result: 8.49

Ask: Please give the result for `CCCCc1c(Nc2ccc(OC)cc2Cl)nc2ccnn2c1N(CCC)CCC` too.
Result: 6.47

Ask: Try this compound too: `CCCN(CCC)c1cc(N(CCOC)c2ccc(OC)cc2Cl)nc2ccnn12`
Result: 6.17

Ask: Continue with `CCC(CC)Nc1cc(N(C)c2ccc(OC)cc2Cl)nc2ncnn12`
Result: 7.38

Ask: Try `CCCN(CCC)c1cc(N(CC2CC2)c2ccc(OC)cc2Cl)nc2ccnn12` next.
Result: 6.67

Ask: Okay, and `CCCN(CCC)c1c(C)c(Nc2ccc(OC)cc2Cl)nc2ncnn12` ?
Result: 8.10

Ask: Now consider `CCCN(CCC)c1c(CC)c(Nc2ccc(OC)cc2Cl)nc2ccnn12` .
Result: 8.38

Ask: Next record, please: `CCc1cc(Cl)ccc1Nc1nc2ccnn2c2c1ccn2C(CC)CC`
Result: 8.33
